- procedure_text: Prodrug release in phosphate buffer containing L-cysteine assessed as H2S release by measuring H2S releasing half-life at 60 uM by methylene blue method
- Assay type: ADME
readout_label: t1/2 (min)

COc1ccc(NC(=S)OCCNC(=O)C(C)(C)Oc2ccc(Cl)cc2)cc1 ... 0.9
O=C(NCCOC(=S)Nc1ccccc1)c1cccnc1 ... 1.2
Cc1cnc(C(=O)OCCCOC(=O)CCCCC2CCSS2)c[n+]1[O-] (stereo unspecified) ... 19.8
O=C(Oc1ccc(-c2cc(=S)ss2)cc1)c1cccnc1 ... 3.3
O=C(NCCOC(=S)Nc1ccc([N+](=O)[O-])cc1Cl)c1cccnc1 ... 2.1

A: NC(=S)c1ccc(OC(=O)c2cccnc2)cc1
B: Cc1cnc(C(=O)Oc2ccc(C(N)=S)cc2)c[n+]1[O-]
C: O=C(CCCCC1CCSS1)OCCCOC(=O)c1cccnc1 (stereo unspecified)
D: COc1ccc(NC(=S)OCCNC(=O)c2cccnc2)cc1
E: CC(C)(Oc1ccc(Cl)cc1)C(=O)Oc1ccc(C(N)=S)cc1
Q: Sort these molecules on t1/2 so the largest reading comes first. Answer by listing the labels in the order asked for.
A: C, E, B, A, D
(C: 15.3 min, E: 5.6 min, B: 3.9 min, A: 2.1 min, D: 0.8 min)

---

- procedure_text: Prodrug release in phosphate buffer containing L-cysteine assessed as H2S release by measuring H2S releasing half-life at 60 uM by methylene blue method
- Assay type: ADME
readout_label: t1/2 (min)

Below: 5 molecules and their reported t1/2.
CC(C)(Oc1ccc(Cl)cc1)C(=O)NCCOC(=S)Nc1ccc([N+](=O)[O-])cc1Cl ... 1.7
Cc1ccc(NC(=S)OCCNC(=O)C(C)(C)Oc2ccc(Cl)cc2)cc1 ... 1
CC(C)(Oc1ccc(Cl)cc1)C(=O)NCCOC(=S)Nc1ccccc1 ... 1.4
Cc1ccc(NC(=S)OCCNC(=O)c2cccnc2)cc1 ... 0.9
O=C(NCCOC(=S)Nc1ccc(F)cc1)c1cccnc1 ... 1.5

A: CC(C)(Oc1ccc(Cl)cc1)C(=O)NCCOC(=S)Nc1ccc(F)cc1
B: CC(C)(Oc1ccc(Cl)cc1)C(=O)OCCCOC(=O)CCCCC1CCSS1 (configuration not stated)
Q: Dear colleague, could you let me know whether A or B has the lower recorded t1/2? Thanks. Your choice should be expressed through its label.
A: A

---

- Tested on: HUVEC
- procedure_text: Cytotoxicity against human HUVEC cells assessed as reduction in cell viability after 48 hrs by MTT assay
- Type: cell-based
Readings of IC50 for the listed compounds
Output spec: scalar in µM, unitless text.

Below: 4 compounds and their reported IC50.
NC(=S)c1ccc(OC(=O)c2cccnc2)cc1 ... 683
Cc1ccc(NC(=S)OCCNC(=O)c2cccnc2)cc1 ... 567
O=C(NCCOC(=S)Nc1ccccc1)c1cccnc1 ... 724
O=C(NCCOC(=S)Nc1ccc([N+](=O)[O-])cc1Cl)c1cccnc1 ... 701

Q: Value lookup for IC50; key = CC(C)(Oc1ccc(Cl)cc1)C(=O)NCCOC(=S)Nc1ccc(F)cc1
A: 773

Q: Value lookup for IC50; key = CC(C)(Oc1ccc(Cl)cc1)C(=O)NCCOC(=S)Nc1ccc([N+](=O)[O-])cc1Cl
A: 729

Q: Value lookup for IC50; key = O=C(NCCOC(=S)Nc1ccc(F)cc1)c1cccnc1
A: 692

Q: Value lookup for IC50; key = Cc1ccc(NC(=S)OCCNC(=O)C(C)(C)Oc2ccc(Cl)cc2)cc1
A: 661

Q: Value lookup for IC50; key = CC(C)(Oc1ccc(Cl)cc1)C(=O)Oc1ccc(-c2cc(=S)ss2)cc1
A: 616

Q: Value lookup for IC50; key = COc1ccc(NC(=S)OCCNC(=O)c2cccnc2)cc1
A: 550
